Just for reference, paper PMC12040169 is where these values come from.

Experiment notes: in vitro
Assay setup: human, hela cells, % viability
Measured parameter: viability at 28.5 h, 10 µM (%)
Number in %, nothing else.

Please give measured viability at 28.5 h, 10 µM of the following entry: CCN(CC)C(=O)C1CCCN(C(=O)NCCc2ccc(OC)c(OC)c2)C1 (centres unmarked)
97.7

More entries:
Provide viability at 28.5 h, 10 µM value for the following molecule: Cc1nc(-c2cccnc2)[nH]c(=O)c1CCC(=O)N1CC2CCC1C2 (centres unmarked)
82.3

Output viability at 28.5 h, 10 µM of `CCN(CC)CCN1CCN(c2cncc(-c3cccc(/C=C/C(=O)O)c3)n2)CC1`
96.6

Hello, please tell me recorded viability at 28.5 h, 10 µM for this one: `CCOc1cc(/C=C2\SC(=N)NC2=O)ccc1OCc1ccc(Br)cc1`
97.7

Report measured viability at 28.5 h, 10 µM; entry is `COc1ccc(Cl)cc1S(=O)(=O)N1CCC(C(=O)NCCCO)CC1`
99

* * *

Experiment notes: in vitro
Assay setup: human, hela cells, % viability
// reported viability at 28.5 h, 10 µM per item
Please reply with the bare figure in % and do not write the unit itself.

Worked examples, 4 compounds total:
Supply reported viability at 28.5 h, 10 µM belonging to this compound: `O=C(Cn1c(C2CCOCC2)cc2cccnc21)N1CCCCCC1`
105

Note down viability at 28.5 h, 10 µM recorded for Cc1ccccc1Cn1c(CN2CCCCC2C)nc2c1c(=O)n(C)c(=O)n2C (centres unmarked)
91.2

Complete the entry with viability at 28.5 h, 10 µM for `O=C(c1cc2c(F)cccc2[nH]1)N1CCC(Oc2cccnc2)CC1`
103

Consider the compound `CC(C)(C)c1[nH]c2ncccc2c1CN1CCSCC1` . State its measured viability at 28.5 h, 10 µM.
93.6

Could you now look at the following compound, please?
Fill in viability at 28.5 h, 10 µM for record `O=C(Cn1ncc2cccn2c1=O)Nc1ccc(F)cc1`
107

* * *

Experiment notes: in vitro
Assay setup: human, hela cells, % viability
Measured parameter: viability at 28.5 h, 10 µM (%)
Express the result in % but write the number alone.

Worked cases, answers included:
State, in one line, measured viability at 28.5 h, 10 µM of C/C(=N\N=C1/NC(=O)C(CC(=O)O)S1)c1ccc(CC(C)C)cc1 (stereo not drawn) [CBK006661]
93.5

Identify measured viability at 28.5 h, 10 µM corresponding to CC(C)n1c(=O)c2c(-c3cc(C(C)(C)C)no3)ncn2c2ccccc21 [CBK016666]
86.6

Given the molecule COc1ccc(C(=O)N2CCC3(CCCN(C(=O)c4ccc5occc5c4)C3)C2)cc1OC (stereo not drawn) [CBK131665] , write its reported viability at 28.5 h, 10 µM.
97.6

Answer with reported viability at 28.5 h, 10 µM of O=C(Nc1cccc(O)c1)c1ccc2c(c1)C(=O)N(c1cccc(N3C(=O)c4ccc(C(=O)Nc5cccc(O)c5)cc4C3=O)n1)C2=O [CBK261199]
89.8

Given the molecule N#Cc1cccc(CSc2nnc(Nc3ccccc3)n2-c2ccccc2)c1 [CBK266040] , write its reported viability at 28.5 h, 10 µM.
107

***
In one line, give reported viability at 28.5 h, 10 µM of the entry Cc1cc(Br)ccc1NC(=O)C(=O)NC1CC1 [CBK269284] .
83.6

Supply reported viability at 28.5 h, 10 µM belonging to this molecule: FC(F)(F)c1cccc(OCc2ccc(-c3ccccc3)cc2)n1 [CBK115836]
92.1

Output measured viability at 28.5 h, 10 µM for this item: OC(CN1CCNCC1)Cn1c2ccc(Cl)cc2c2cc(Cl)ccc21 (stereo not drawn) [CBK094277G]
68.1

Determine from records and report viability at 28.5 h, 10 µM for O=C1c2cccc3cccc(c23)C(=O)N1CC1CCN(CC(O)COCC2COc3ccccc3O2)CC1 (stereo not drawn) [CBK074412C]
100

* * *

Experiment notes: in vitro
Assay setup: human, hela cells, % viability
Measured parameter: viability at 28.5 h, 10 µM (%)
Respond numerically; units are % and should not be typed.

// Input: `COc1ccc(NC(=O)c2cc(C(F)(F)F)cc(C(F)(F)F)c2)cn1` . Output its viability at 28.5 h, 10 µM only.
85.1

Further cases:
In one line, give reported viability at 28.5 h, 10 µM of the entry `CC(C)N(C(=O)CN1C(=O)N2CCCN=C2c2ccccc21)C(C)C` .
100

// Input: COc1ccc2[nH]c3c(c2c1)CCN(CCc1ccc(F)cc1)C3 [CBK082819T] . Output its viability at 28.5 h, 10 µM only.
92.3

Identify measured viability at 28.5 h, 10 µM associated with `CCCC/C=C/c1cc(NCCC)n2nccc2n1`
99.1

Item `O=c1[nH]cc(-c2ccccc2)cc1CNc1cccc2ncccc12` : provide viability at 28.5 h, 10 µM
77.1

Supply reported viability at 28.5 h, 10 µM belonging to this compound: `Cc1ccc(-c2noc(CN3CCN(c4ccccn4)CC3)n2)cc1`
95.7

Determine its reported viability at 28.5 h, 10 µM: COc1cccc(CCN2CCC(C(=O)NC(C)c3cccc4ccccc34)CC2)c1 (centres unmarked)
93.3

Identify measured viability at 28.5 h, 10 µM associated with Cc1ccc(C2(C(=O)NC(C)c3ccccn3)CCOCC2)cc1 (centres unmarked)
90.5

Tell me its viability at 28.5 h, 10 µM given CC(C(=O)Nc1cccc(F)c1)N1CCN(Cc2cccnc2)CC1 (centres unmarked) as the entry.
109

Tell me its viability at 28.5 h, 10 µM given Cc1ccc(CN2Cc3cc4ccccc4nc3OC(C)C2=O)o1 (centres unmarked) as the entry.
90.6

Name the recorded viability at 28.5 h, 10 µM of the compound listed here: `COCCC(=O)Nc1cnc(-c2ccc(F)c(Cl)c2)c(-c2cccnc2)n1`
95.2

* * *

Experiment notes: in vitro
Assay setup: human, hela cells, % viability
Below, each entry is listed alongside its reported viability at 28.5 h, 10 µM.
// note: answer is a bare numeric in %

Supply viability at 28.5 h, 10 µM value. Item: `Cc1noc(C)c1C(=O)N1CCc2ccccc2C1`
103

Annotate the compound O=C(O)c1cccc(Nc2nc(-c3ccccc3)nc3ccccc23)c1 [CBK263941C] with its measured viability at 28.5 h, 10 µM.
97.6

Give me measured viability at 28.5 h, 10 µM, please, for this compound: `CN(CCNC(=O)Nc1ccc2c(c1)oc(=O)n2C)C1CCCC1`
95.1

* * *

Experiment notes: in vitro
Assay setup: human, hela cells, % viability
Measured parameter: viability at 28.5 h, 10 µM
Respond with a number, then the unit of measure.

Record excerpt, results attached:
Supply measured viability at 28.5 h, 10 µM of `COc1cc(C)nc(NN)n1` in your reply.
108%

Return viability at 28.5 h, 10 µM for the following compound: `CCc1nc2cc(NC(=O)Cn3cc(C)cn3)ccc2n1CC`
84.9%

Look up and report measured viability at 28.5 h, 10 µM for this entry: `c1ccc(CN2CCN(Cc3ccccc3)C2c2ccco2)cc1`
99.6%

Identify the reported viability at 28.5 h, 10 µM for the following entry. CCOc1ccc(NC(c2ccccc2)c2cc3cc(OC)ccc3[nH]c2=O)cc1 (stereo not shown)
81.7%

Turning now to a further compound:
Complete the entry with viability at 28.5 h, 10 µM for Cc1noc2nc(C3CCN(C(=O)C4CC4C)CC3)cc(C(F)F)c12 (stereo not shown)
93%

* * *

Experiment notes: in vitro
Assay setup: human, hela cells, % viability
Measured parameter: viability at 28.5 h, 10 µM (%)
Report the value in % with no unit label.

Entry O=C1CC[C@@H](C(=O)N2CCc3nc(-c4ccccc4F)sc3C2)N1 [CBK281891] needs its viability at 28.5 h, 10 µM filled in; supply it.
82.1

State its viability at 28.5 h, 10 µM for this molecule: CCOC(=O)N1CCN(CC2CCCCN2)CC1 (stereo not shown) [CBK022780G]
83.4

State its viability at 28.5 h, 10 µM for this molecule: O=C(c1cscn1)N1C2CCC1CC(O)(c1ccco1)C2 (stereo not shown) [CBK284135]
105

Provide viability at 28.5 h, 10 µM value for the following molecule: CN(C)c1ccc(Nc2nc(NCCO)c3ccccc3n2)cc1 [CBK268392C]
87.6

Give me measured viability at 28.5 h, 10 µM, please, for this molecule: S=C(NCCC(c1ccccc1)c1ccccc1)NC1CCCCC1 [CBK264007]
96.3

Tell me its viability at 28.5 h, 10 µM given O=C(Nc1ccc([C@@H](O)[C@H]2COCC(=O)N2Cc2ccc(F)cc2)cc1)c1ccccc1 [CBK289061] as the entry.
86.1

Annotate the molecule COCCNc1nccnc1-c1ccccc1F [CBK038044] with its measured viability at 28.5 h, 10 µM.
97.6

Quickly give me recorded viability at 28.5 h, 10 µM for CCn1nc(NC(=O)C2Cc3ccccc3CN2C)cc1C (stereo not shown) [CBK282133]
93.8

Note down viability at 28.5 h, 10 µM recorded for CN1CCN(C(=O)c2sccc2NS(=O)(=O)c2ccc3ccccc3c2)CC1 [CBK004631]
91.7

More entries:
// fetch viability at 28.5 h, 10 µM given entry CC(=O)Oc1ccc(N2C(=O)CCSC2=S)cc1 [CBK005283]
89.4
